Target: EGFR (L858R T790M C797S) (Homo sapiens, UniProt P00533, C797S/L858R/T790M)
Construct: purchased SignalChem E10-122VG
Sequence (P00533 25-1210 T790M/C797S/L858R): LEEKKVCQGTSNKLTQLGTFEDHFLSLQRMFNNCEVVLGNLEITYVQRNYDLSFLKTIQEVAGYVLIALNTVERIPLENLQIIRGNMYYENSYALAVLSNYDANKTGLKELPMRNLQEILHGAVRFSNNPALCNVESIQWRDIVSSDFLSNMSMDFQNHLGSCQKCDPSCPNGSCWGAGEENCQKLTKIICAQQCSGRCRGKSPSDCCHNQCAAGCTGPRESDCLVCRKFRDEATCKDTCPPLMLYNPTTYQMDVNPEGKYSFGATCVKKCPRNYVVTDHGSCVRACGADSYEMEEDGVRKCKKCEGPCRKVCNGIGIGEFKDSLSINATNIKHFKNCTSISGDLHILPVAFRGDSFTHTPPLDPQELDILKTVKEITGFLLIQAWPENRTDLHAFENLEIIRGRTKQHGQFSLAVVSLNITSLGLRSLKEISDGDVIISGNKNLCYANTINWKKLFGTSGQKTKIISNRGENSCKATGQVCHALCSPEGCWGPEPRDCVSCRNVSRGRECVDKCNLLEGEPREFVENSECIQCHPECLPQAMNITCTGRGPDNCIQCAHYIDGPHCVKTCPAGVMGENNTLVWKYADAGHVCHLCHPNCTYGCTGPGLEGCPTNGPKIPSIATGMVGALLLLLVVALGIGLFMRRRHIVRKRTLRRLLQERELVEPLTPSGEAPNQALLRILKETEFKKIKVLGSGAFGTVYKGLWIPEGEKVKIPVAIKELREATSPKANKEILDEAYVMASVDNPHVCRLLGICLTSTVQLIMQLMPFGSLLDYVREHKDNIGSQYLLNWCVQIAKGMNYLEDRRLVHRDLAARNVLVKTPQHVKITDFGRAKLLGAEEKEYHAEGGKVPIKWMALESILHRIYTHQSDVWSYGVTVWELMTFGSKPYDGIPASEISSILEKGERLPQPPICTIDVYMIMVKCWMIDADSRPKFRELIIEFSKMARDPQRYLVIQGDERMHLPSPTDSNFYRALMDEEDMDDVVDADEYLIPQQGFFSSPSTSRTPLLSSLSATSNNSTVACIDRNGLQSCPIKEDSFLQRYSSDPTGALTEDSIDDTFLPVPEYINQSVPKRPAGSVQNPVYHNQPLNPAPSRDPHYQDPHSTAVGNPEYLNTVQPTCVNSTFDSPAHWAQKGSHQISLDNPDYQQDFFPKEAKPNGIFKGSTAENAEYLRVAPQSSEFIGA
Assay: Biochemical EGFR inhibition assay (Caliper mobility shift), EGFR LRTMCS
Settings: LRTMCS (PH) IC50 (nM) @ 1 mM ATP (Num), EGFR LRTMCS mutant
As shown below, each of these compounds has a reported IC50 value.
observation type: IC50

[[record]]
compound = "COC[C@@H](C)c1cnc(N2CC[C@H]2C)c2cnc(Nc3ccnc(N4CC[C@@H](O)[C@@](C)(F)C4)n3)cc12 (single isomer, unassigned) [Example 216]"
observation_type = "IC50"
measured_result = "15 to 20 nM"

[[record]]
compound = "CO[C@H]1CCN(c2cc(Nc3cc4c(C(C)C)ccc(N5CC(n6ccnn6)C5)c4cn3)ccn2)C[C@@H]1O (single isomer, unassigned) [Example 127]"
observation_type = "IC50"
measured_result = "15 to 20 nM"

[[record]]
compound = "CC(C)c1cnc(N2C[C@H](O)[C@H]2C)c2cnc(Nc3ccnc(N4C[C@@H](F)[C@@H](O)C(C)(C)C4)n3)cc12 (single isomer, unassigned) [Example 145]"
observation_type = "IC50"
measured_result = "< 15 nM"

[[record]]
compound = "CC(C)c1ncc(N2CC[C@H]2C)c2cnc(Nc3ccnc(N4CC[C@@H](O)[C@@](C)(F)C4)n3)cc12 [Example 106]"
observation_type = "IC50"
measured_result = "< 15 nM"

[[record]]
compound = "CC(C)c1cnc(N2C[C@H](O)[C@H]2C)c2cnc(Nc3ccnc(N4C[C@@H](F)[C@@H](O)[C@@](C)(F)C4)n3)cc12 (single isomer, unassigned) [Example 133]"
observation_type = "IC50"
measured_result = "< 15 nM"

[[record]]
compound = "CC(C)c1cnc(N2CC3(CCS3(=O)=O)C2)c2cnc(Nc3ccnc(N4C[C@@H](F)[C@@H](O)C(C)(C)C4)n3)cc12 (single isomer, unassigned) [Example 132]"
observation_type = "IC50"
measured_result = "< 15 nM"

[[record]]
compound = "CC(C)c1cnc(N2CC(C#N)C2)c2cnc(Nc3ccnc(N4CC[C@@H](O)[C@@](C)(F)C4)n3)cc12 [Example 58]"
observation_type = "IC50"
measured_result = "< 15 nM"

[[record]]
compound = "CO[C@@H]1CCN(c2nccc(Nc3cc4c(C(C)C)cnc(N5CC(O)C5)c4cn3)n2)C[C@@H]1F [Example 147]"
observation_type = "IC50"
measured_result = "< 15 nM"

[[record]]
compound = "CC(C)c1ccc(N2CC(C)(c3nnco3)C2)c2cnc(Nc3ccnc(N4CC[C@@H](O)[C@@](C)(F)C4)n3)cc12 [Example 113]"
observation_type = "IC50"
measured_result = "20 to 30 nM"

[[record]]
compound = "CC(C)c1cnc(N2CC(CO)C2)c2cnc(Nc3ccnc(N4CC[C@@H](O)[C@@](C)(F)C4)n3)cc12 [Example 61]"
observation_type = "IC50"
measured_result = "< 15 nM"

[[record]]
compound = "CC(C)c1cnc(-c2ccn(C3COC3)n2)c2cnc(Nc3ccnc(N4CC[C@@H](O)[C@@](C)(F)C4)n3)cc12 [Example 21]"
observation_type = "IC50"
measured_result = "< 15 nM"

[[record]]
compound = "CC(C)c1cnc(-c2cnn(S(C)(=O)=O)c2)c2cnc(Nc3ccnc(N4CC[C@@H](O)[C@@](C)(F)C4)n3)cc12 [Example 18]"
observation_type = "IC50"
measured_result = "15 to 20 nM"

[[record]]
compound = "C[C@H](C#N)c1ncc(N2CC[C@H]2C)c2cnc(Nc3ccnc(N4CC[C@@H](O)[C@@](C)(F)C4)n3)cc12 (single isomer, unassigned) [Example 157]"
observation_type = "IC50"
measured_result = "< 15 nM"

[[record]]
compound = "CO[C@H]1CCN(c2nccc(Nc3cc4c(C(C)C)cnc(N5CC[C@H]5C)c4cn3)n2)C[C@H]1OCCO (single isomer, unassigned) [Example 167]"
observation_type = "IC50"
measured_result = "< 15 nM"

[[record]]
compound = "CC(C)c1cnc(N2CC[C@H]2C)c2cnc(Nc3cnnc(N4CC[C@@H](O)[C@@](C)(F)C4)n3)cc12 (single isomer, unassigned) [Example 179]"
observation_type = "IC50"
measured_result = "< 15 nM"

[[record]]
compound = "CC(C)c1cnc(N2CC[C@]3(C2)CC3(F)F)c2cnc(Nc3ccnc(N4CC[C@@H](O)[C@@](C)(F)C4)n3)cc12 (single isomer, unassigned) [Example 213]"
observation_type = "IC50"
measured_result = "< 15 nM"

[[record]]
compound = "C[C@H](CO)c1ncc(N2CC[C@H]2C)c2cnc(Nc3ccnc(N4CC[C@@H](O)[C@@](C)(F)C4)n3)cc12 (single isomer, unassigned) [Example 178]"
observation_type = "IC50"
measured_result = "20 to 30 nM"

[[record]]
compound = "CNCCO[C@@H]1CCN(c2nccc(Nc3cc4c(C(C)C)cnc(N5CC[C@H]5C)c4cn3)n2)C[C@@H]1F [Example 201]"
observation_type = "IC50"
measured_result = "< 15 nM"

[[record]]
compound = "CC(C)c1cnc(-c2cnn(C(F)F)c2)c2cnc(Nc3ccnc(N4CC[C@@H](O)[C@@](C)(F)C4)n3)cc12 [Example 16]"
observation_type = "IC50"
measured_result = "15 to 20 nM"

[[record]]
compound = "CO[C@@H]1CCN(c2nccc(Nc3cc4c(C(C)C)ccc(N5CC6(CCS6(=O)=O)C5)c4cn3)n2)C[C@@H]1O (single isomer, unassigned) [Example 125]"
observation_type = "IC50"
measured_result = "< 15 nM"

[[record]]
compound = "C[C@@H](CO)c1cnc(N2CC[C@@H]2C)c2cnc(Nc3ccnc(N4CC[C@@H](O)[C@@](C)(F)C4)n3)cc12 (single isomer, unassigned) [Example 189]"
observation_type = "IC50"
measured_result = "< 15 nM"

[[record]]
compound = "CC(C)c1nnc(N2CCCC2)c2cnc(Nc3ccnc(N4CC[C@@H](O)[C@@](C)(F)C4)n3)cc12 [Example 114]"
observation_type = "IC50"
measured_result = "30 to 100 nM"

[[record]]
compound = "CC(C)c1cnc(N2Cc3cnn(C)c3C2)c2cnc(Nc3ccnc(N4CC[C@@H](O)[C@@](C)(F)C4)n3)cc12 [Example 90]"
observation_type = "IC50"
measured_result = "< 15 nM"

[[record]]
compound = "CC(C)c1cnc(N2CCC[C@H]2CN(C)C)c2cnc(Nc3ccnc(N4CC[C@@H](O)[C@@](C)(F)C4)n3)cc12 [Example 115]"
observation_type = "IC50"
measured_result = "30 to 100 nM"

